This collection of values is drawn from ChEMBL document CHEMBL1781971.

Target: Fibroblast growth factor receptor 2 (Homo sapiens, UniProt P21802)
Sequence (P21802 whole entry): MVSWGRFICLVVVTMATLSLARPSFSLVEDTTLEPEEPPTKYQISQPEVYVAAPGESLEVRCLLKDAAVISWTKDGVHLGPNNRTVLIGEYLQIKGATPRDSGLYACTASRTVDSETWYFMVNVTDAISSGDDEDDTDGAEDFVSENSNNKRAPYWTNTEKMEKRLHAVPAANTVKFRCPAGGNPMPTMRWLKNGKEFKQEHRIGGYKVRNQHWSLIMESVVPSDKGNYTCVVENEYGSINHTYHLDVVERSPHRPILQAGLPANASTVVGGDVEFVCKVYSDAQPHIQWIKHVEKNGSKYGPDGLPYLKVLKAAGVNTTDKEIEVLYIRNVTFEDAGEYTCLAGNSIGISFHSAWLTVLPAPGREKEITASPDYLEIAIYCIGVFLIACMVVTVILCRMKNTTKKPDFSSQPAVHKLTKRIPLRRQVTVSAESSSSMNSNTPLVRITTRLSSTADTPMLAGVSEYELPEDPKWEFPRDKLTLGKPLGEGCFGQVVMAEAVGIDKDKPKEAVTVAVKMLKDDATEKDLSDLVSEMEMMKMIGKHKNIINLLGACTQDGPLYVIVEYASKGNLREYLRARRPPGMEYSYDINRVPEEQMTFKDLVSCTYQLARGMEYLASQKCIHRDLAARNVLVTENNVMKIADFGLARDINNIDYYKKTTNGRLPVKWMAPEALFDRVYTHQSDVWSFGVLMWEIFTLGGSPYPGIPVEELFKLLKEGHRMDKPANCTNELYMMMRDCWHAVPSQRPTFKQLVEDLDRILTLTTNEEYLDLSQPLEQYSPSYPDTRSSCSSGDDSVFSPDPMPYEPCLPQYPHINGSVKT
MEASURED ATTRIBUTE: IC50
Remember to quote the unit after the number.

# input For the molecule shown here, CNC(=O)c1ncc(C#Cc2cc(C(=O)Nc3ccc(CN4CCN(CCO)CC4)c(C(F)(F)F)c3)ccc2C)n1C , give the reported IC50.
# output 1.5 nM

###

Target: Platelet-derived growth factor receptor alpha (Homo sapiens, UniProt P16234)
Sequence (P16234 whole entry): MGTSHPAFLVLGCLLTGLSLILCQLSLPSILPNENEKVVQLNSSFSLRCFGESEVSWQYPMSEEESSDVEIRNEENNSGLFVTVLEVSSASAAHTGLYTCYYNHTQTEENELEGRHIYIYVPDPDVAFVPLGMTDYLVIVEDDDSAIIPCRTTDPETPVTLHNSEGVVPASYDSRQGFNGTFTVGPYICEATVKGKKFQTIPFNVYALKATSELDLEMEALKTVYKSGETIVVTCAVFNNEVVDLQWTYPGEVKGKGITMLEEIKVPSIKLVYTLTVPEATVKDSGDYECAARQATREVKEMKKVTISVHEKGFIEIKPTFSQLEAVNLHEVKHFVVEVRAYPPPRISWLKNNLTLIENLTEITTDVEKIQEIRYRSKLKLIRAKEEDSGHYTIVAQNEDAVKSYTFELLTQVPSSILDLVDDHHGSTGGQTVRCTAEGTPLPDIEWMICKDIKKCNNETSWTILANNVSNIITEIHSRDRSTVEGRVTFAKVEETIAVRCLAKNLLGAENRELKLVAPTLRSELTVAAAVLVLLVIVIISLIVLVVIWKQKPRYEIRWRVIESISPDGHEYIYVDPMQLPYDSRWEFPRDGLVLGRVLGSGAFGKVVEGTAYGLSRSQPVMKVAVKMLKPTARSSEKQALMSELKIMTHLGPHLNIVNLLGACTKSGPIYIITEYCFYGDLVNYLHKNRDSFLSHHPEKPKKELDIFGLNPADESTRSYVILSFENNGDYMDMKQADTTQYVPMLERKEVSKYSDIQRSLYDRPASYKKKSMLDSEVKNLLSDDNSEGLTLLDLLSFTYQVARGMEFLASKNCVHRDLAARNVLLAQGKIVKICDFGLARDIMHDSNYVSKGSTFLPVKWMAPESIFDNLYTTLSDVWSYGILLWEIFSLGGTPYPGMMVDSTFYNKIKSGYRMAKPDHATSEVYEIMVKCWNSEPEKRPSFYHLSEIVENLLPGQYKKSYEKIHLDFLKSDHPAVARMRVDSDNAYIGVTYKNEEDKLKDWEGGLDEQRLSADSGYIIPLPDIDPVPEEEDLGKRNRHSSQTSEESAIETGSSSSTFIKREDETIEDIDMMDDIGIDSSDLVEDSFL
MEASURED ATTRIBUTE: IC50 (nM)
Numbers only, in nM.

# input For the molecule shown here, CNC(=O)c1ncc(C#Cc2cc(C(=O)Nc3ccc(CN4CCN(CCO)CC4)c(C(F)(F)F)c3)ccc2C)n1C , give the reported IC50.
# output 1.3

###

Biological target: Macrophage colony-stimulating factor 1 receptor (Homo sapiens)
Sequence (P07333 whole entry, looked up): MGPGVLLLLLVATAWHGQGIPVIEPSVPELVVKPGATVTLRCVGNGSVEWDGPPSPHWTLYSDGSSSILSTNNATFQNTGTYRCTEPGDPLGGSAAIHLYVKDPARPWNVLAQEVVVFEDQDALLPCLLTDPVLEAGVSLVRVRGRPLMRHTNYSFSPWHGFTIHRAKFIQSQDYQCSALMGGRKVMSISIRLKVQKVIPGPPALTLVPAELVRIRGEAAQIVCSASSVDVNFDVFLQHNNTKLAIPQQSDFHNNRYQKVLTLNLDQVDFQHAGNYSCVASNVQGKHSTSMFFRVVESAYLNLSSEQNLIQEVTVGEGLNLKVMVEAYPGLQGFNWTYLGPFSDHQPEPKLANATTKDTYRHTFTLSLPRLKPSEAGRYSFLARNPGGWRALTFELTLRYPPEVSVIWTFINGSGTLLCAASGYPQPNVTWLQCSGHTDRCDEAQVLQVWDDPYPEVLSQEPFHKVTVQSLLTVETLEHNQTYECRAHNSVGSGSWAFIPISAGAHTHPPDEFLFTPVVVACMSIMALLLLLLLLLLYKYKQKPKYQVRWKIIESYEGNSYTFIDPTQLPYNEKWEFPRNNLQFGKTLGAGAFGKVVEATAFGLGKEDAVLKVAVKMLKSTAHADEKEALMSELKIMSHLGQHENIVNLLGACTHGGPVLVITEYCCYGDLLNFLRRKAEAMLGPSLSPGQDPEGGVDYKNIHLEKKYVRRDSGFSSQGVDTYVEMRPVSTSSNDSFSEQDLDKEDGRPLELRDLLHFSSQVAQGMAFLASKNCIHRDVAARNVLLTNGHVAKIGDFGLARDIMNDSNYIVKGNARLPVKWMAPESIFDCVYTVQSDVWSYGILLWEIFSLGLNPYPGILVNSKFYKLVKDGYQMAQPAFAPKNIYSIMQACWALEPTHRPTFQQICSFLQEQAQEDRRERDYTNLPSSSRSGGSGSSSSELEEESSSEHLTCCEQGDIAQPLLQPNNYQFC
MEASURED ATTRIBUTE: IC50 (nM)
Give bare numbers, in nM.

# input Form: Entry = CNC(=O)c1ncc(C#Cc2cc(C(=O)Nc3ccc(CN4CCN(CCO)CC4)c(C(F)(F)F)c3)ccc2C)n1C | System = Macrophage colony-stimulating factor 1 receptor (Homo sapiens) | IC50 = ____
# output 7.2

###

Test: Cmax in rat at 5 mg/kg, iv
Assay type: ADME, organism-based
Parameters: dose 5 mg/kg, route intravenous
Conditions: in vivo
MEASURED ATTRIBUTE: Cmax (ng/mL)
One number for each entry, in ng/mL.

Some compounds with known Cmax results, for comparison:
| MOLECULE | MEASUREMENT UNITS | Cmax |
| --- | --- | --- |
| Cc1ccc(C(=O)Nc2ccc(CN3CCN(C)CC3)c(C(F)(F)F)c2)cc1C#Cc1cncnc1 | ng/mL | 822 |
| Cc1ccc(C(=O)Nc2ccc(CN3CCN(CCO)CC3)c(C(F)(F)F)c2)cc1C#Cc1cnc(C(N)=O)n1C | ng/mL | 598 |
| CNC(=O)c1ncc(C#Cc2cc(C(=O)Nc3ccc(CN4CCN(CCO)CC4)c(C(F)(F)F)c3)ccc2C)n1C | ng/mL | 200 |

# input For the compound shown here, Cc1ccc(C(=O)Nc2ccc(CN3CCN(C)CC3)c(C(F)(F)F)c2)cc1C#Cc1cnc(C(N)=O)n1C , give the reported Cmax.
# output 627

###

Molecular target: Proto-oncogene tyrosine-protein kinase Src (Homo sapiens, UniProt P12931)
Sequence (P12931 2-536 limits assumed): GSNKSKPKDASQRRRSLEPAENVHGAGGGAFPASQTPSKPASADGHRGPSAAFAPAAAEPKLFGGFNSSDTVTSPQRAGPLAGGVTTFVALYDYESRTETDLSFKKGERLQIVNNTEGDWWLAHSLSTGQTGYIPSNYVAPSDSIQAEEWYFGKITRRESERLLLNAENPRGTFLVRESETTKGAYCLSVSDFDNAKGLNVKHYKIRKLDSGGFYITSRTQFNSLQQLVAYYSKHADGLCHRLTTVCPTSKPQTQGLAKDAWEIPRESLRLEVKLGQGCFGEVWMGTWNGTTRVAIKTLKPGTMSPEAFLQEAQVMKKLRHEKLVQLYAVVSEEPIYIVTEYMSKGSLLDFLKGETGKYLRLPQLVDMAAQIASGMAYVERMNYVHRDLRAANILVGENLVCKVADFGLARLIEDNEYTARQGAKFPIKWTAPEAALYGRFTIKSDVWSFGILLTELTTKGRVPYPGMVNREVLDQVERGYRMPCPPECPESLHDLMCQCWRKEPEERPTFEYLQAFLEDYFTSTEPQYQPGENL
MEASURED ATTRIBUTE: IC50 (nM)
Answers are plain numbers, in nM.

# input For the compound shown here, CNC(=O)c1ncc(C#Cc2cc(C(=O)Nc3ccc(CN4CCN(CCO)CC4)c(C(F)(F)F)c3)ccc2C)n1C , give the reported IC50.
# output 4

###

Test system: Rattus norvegicus
Assay: AUC in rat at 5 mg/kg, iv
Assay type: ADME, organism-based, Plasma
Set-up: dose 5 mg/kg, route intravenous
Settings: in vivo
For each of the molecules below, state its AUC.
Give bare numbers, in h/ng/mL.

| MOLECULE | TEST RESULT |
| --- | --- |
| CNC(=O)c1ncc(C#Cc2cc(C(=O)Nc3ccc(CN4CCN(CCO)CC4)c(C(F)(F)F)c3)ccc2C)n1C | 970 |
| Cc1ccc(C(=O)Nc2ccc(CN3CCN(C)CC3)c(C(F)(F)F)c2)cc1C#Cc1cnc(C(N)=O)n1C | 5445 |
| Cc1ccc(C(=O)Nc2ccc(CN3CCN(CCO)CC3)c(C(F)(F)F)c2)cc1C#Cc1cnc(C(N)=O)n1C | 2320 |

Next molecule, AUC to be filled in.
# input Form: Entry = Cc1ccc(C(=O)Nc2ccc(CN3CCN(C)CC3)c(C(F)(F)F)c2)cc1C#Cc1cncnc1 | System = Rattus norvegicus | AUC = ____
# output 5308
